Data origin, for the record: ChEMBL document CHEMBL3988442

Percent Effect values for the compounds below.
# TARGET OR SYSTEM: Chromo domain-containing protein 1 (Saccharomyces cerevisiae (strain ATCC 204508 / S288c) (Baker's yeast))
# TEST METHOD NOTES: ScCHD-1 Enzyme Inhibition Assay
# Type: functional
# Parameters: scale not given: in the data most compounds retested in dose-response had high values
# CONDITION: 30 µM
PROPERTY MEASURED: Percent Effect (%)

compound=CN(Cc1ccco1)[C@@H]1CN(C(=O)c2ccnnc2)[C@@H]2CCCO[C@H]12 observed_result=-1.74
compound="COCCC(=O)N1CCC2(COCc3cnc(-c4ccccc4)nc32)C1 (stereo not drawn)" observed_result=-0.943
compound=CSCCCN1CCn2nc(CNC(C)=O)cc2C1 observed_result=-4.5
compound="CCc1nc(CN(C)C2CCN(Cc3ccc(C#N)cc3F)C2)no1 (stereo not drawn)" observed_result=-7.82
compound="CCS(=O)(=O)N1CCC2(CCC2NC(=O)c2ccn(C)c2)CC1 (stereo not drawn)" observed_result=-3.62
compound="CC1c2ncc(COc3cccnc3)n2CCN1C(=O)Cc1ccco1 (stereo not drawn)" observed_result=0.38
compound=CC(=O)Nc1cccc(C(=O)Nc2cnc3n2CCCC3)c1 observed_result=-3.23
compound=Cn1cc(-c2csc(N3CCN(C(=O)OC(C)(C)C)CC3)n2)cn1 observed_result=-1.57
compound=NC(=O)C1CCN(CCc2ccc(NC(=O)C3CCC3)cc2)CC1 observed_result=-5.51
compound=CCN1CCN(C2CCN(Cc3nc4ccccc4o3)CC2)C1=O observed_result=-20.3
compound=Cc1csc([C@@H]2C[C@@H]3CCN(C(=O)c4ccnnc4)C[C@H]3O2)n1 observed_result=-1.14
compound=CC(=O)c1ccc(N2CCC(CO)(CCOc3ccccc3)CC2)nc1 observed_result=1.85
compound="Cc1ccc(C(CNCc2ccncc2)N2CCOCC2)s1 (stereo not drawn)" observed_result=-7.13
compound=CC(C)Cc1noc(CN2CCN(CCOc3ccc(Cl)cc3)CC2)n1 observed_result=-8.42
compound="CS(=O)(=O)N1CCCC12CCCN(S(=O)(=O)c1cc(F)cc(F)c1)C2 (stereo not drawn)" observed_result=-0.985
compound=OC1(Cn2ccc3ncccc32)CCN(Cc2ccccn2)CC1 observed_result=-14.5
compound="Cn1c(Cn2ccnc2)nnc1C1CCCN(C2CCCCC2)C1 (stereo not drawn)" observed_result=-3.83
compound="Cc1nn(C)c(C)c1C1CCCN1C(=O)CCCn1cccn1 (stereo not drawn)" observed_result=1.61
compound=Cc1nn(C)c(N2CCOCC2)c1CNC1CCN(C(C)(C)C)CC1 observed_result=-4.24
compound="CC(CNc1cncc(-n2cccn2)n1)N(C)c1ccccc1 (stereo not drawn)" observed_result=-6.86
compound=Cc1ccc(N2CCCN(C(=O)c3cc(Cl)c[nH]3)CC2)nn1 observed_result=-1.25
compound=CN(C)[C@@H]1CCN(c2ncccn2)[C@H]1Cc1ccncc1 observed_result=-1.65
compound=COc1ccc(F)c(CN2CCC3(CCC(=O)N(CC(N)=O)C3)CC2)c1 observed_result=-5.79
